Biological target: Cannabinoid receptor 1 (Rattus norvegicus, UniProt P20272)
Sequence (P20272 whole entry): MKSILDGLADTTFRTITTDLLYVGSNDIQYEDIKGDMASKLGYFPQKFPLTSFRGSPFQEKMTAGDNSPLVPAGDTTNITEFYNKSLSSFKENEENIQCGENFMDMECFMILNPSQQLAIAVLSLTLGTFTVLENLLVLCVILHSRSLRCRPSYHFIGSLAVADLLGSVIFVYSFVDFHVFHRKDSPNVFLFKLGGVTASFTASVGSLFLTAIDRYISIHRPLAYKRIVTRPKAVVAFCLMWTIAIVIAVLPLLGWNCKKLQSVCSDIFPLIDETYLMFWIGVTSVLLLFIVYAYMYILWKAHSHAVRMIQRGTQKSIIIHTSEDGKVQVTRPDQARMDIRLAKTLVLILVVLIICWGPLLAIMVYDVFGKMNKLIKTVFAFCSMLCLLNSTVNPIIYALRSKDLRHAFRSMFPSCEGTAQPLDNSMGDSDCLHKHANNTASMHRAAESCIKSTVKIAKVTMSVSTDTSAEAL
Entries and their Ki values follow.
Report only the number, with the unit nM understood.

{"Record smiles": "CCCC(C)(C)c1ccc2c(c1)OC(C)(C)[C@@H]1CC=C(C)C[C@@H]21", "Ki / nM": 677}
{"Record smiles": "CCCCCC(C)(C)c1cc(Br)c2c(c1)OC(C)(C)[C@@H]1CC=C(C)C[C@@H]21", "Ki / nM": 1440}
{"Record smiles": "CCCCCCC(C)(C)c1cc(Br)c2c(c1)OC(C)(C)[C@@H]1CC=C(C)C[C@@H]21", "Ki / nM": 562}

With those in mind, consider the next molecule.
Request: Tell me reported Ki for `CCCCC(C)(C)c1cc(Br)c2c(c1)OC(C)(C)[C@@H]1CC=C(C)C[C@@H]21` , tested with Cannabinoid receptor 1 (Rattus norvegicus, UniProt P20272).
Response: 1140
